Target: T1, human neuropeptide Y2 receptor (human, UniProt P49146 1-381)
T1 sequence (looked up): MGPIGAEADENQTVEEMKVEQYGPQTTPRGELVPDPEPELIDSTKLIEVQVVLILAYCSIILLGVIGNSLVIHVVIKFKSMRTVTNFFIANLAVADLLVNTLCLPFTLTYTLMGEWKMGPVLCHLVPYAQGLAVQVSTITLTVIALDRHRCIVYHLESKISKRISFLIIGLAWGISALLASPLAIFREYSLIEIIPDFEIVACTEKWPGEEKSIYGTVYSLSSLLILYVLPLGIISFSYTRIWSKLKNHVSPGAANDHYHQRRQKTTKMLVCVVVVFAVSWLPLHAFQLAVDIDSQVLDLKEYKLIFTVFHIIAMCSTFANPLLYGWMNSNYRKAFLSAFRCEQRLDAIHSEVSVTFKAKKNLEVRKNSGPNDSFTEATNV
Experiment: cell-based or functional assay
Starred links: 1 amine or outer side, 2 acyl side, 3 side chain; linkers in the order of their positions; H or OH if unused. Non-standard residues stand in square brackets, D forms with d. Groups on a side chain read outwards from the residue. No end group written: not given here. *: point of attachment. C20 diacid = O=C(O)CCCCCCCCCCCCCCCCCCC(=O)*; C18 diacid = O=C(O)CCCCCCCCCCCCCCCCC(=O)*; γGlu = O=C(O)[C@H](CCC(=O)[*:2])N[*:1]; εLys = N[C@@H](CCCCN[*:1])C(=O)[*:2]; AEEA = NCCOCCOCC(=O)O; Aib = CC(C)(N)C(=O)O; Ahx = NCCCCCC(=O)O
The label is met for EC50 CreLuc hNPY2R 100% hP below 40 nM and not met for EC50 CreLuc hNPY2R 100% hP equal to or exceeding 40 nM.

Past entries and their recorded results:
| binder | labelClass |
| --- | --- |
| Y[Aib]EGTFTSDYSI[Aib]LEKQAQ[Aib]EFVEWLIK([εLys-γGlu-γGlu-γGlu-γGlu-γGlu-C18 diacid])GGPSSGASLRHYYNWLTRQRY-NH2 [Compound 159] | met |
| Y[Aib]EGTFTSDYSI[Aib]LEKQAQ[Aib]AFVQWLIK([εLys-γGlu-γGlu-γGlu-γGlu-γGlu-C18 diacid])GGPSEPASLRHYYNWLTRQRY-NH2 [Compound 148] | met |
| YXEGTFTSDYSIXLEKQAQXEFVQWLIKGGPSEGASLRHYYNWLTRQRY (Aib at 2, 13, 20; K28 side chain: C18DA-gGlu-gGlu-gGlu-gGlu-gGlu-gGlu-eLys; C-terminal NH2) [Compound 153] | not met |
| YXEGTFTSDYSIXLEKQAQXAFVEWLIKGGQSSGASLRHYYNWLTRQRY (Aib at 2, 13, 20; K28 side chain: C20DA-gGlu-gGlu-gGlu-gGlu-gGlu-gGlu-eLys; C-terminal NH2) [Compound 123] | met |
| Y[Aib]EGTFTSDYSI[Aib]LEKQAQ[Aib]AFVEWLIK([AEEA-AEEA-γGlu-γGlu-γGlu-C18 diacid])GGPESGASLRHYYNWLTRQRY-NH2 [Compound 166] | not met |
| YXEGTFTSDLSIXLEKQAQXAFVEWLIKGGPSSGASLRHYYNWLTRQRY (Aib at 2, 13, 20; K28 side chain: C20DA-gGlu-gGlu-gGlu-gGlu-gGlu-gGlu-eLys; C-terminal NH2) [Compound 172] | not met |

[Q] Answer whether the binder YXEGTFTSDYSIXLEKQAQXAFVEWLIKGGPSSGLSLRHYYNWLTRQRY (Aib at 2, 13, 20; K28 side chain: C20DA-gGlu-gGlu-gGlu-gGlu-gGlu-gGlu-eLys; C-terminal NH2) [Compound 107] has EC50 CreLuc hNPY2R 100% hP strictly less than 40 nM
[A] not met

[Q] Is EC50 CreLuc hNPY2R 100% hP of Y[Aib]EGTFTSDYSI[Aib]LEKQAQ[Aib]AFVQWLIK([εLys-γGlu-γGlu-γGlu-Glu-γGlu-γGlu-γGlu-C20 diacid])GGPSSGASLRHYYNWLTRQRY-NH2 [Compound 92] strictly below 40 nM?
[A] met

[Q] Hello, is EC50 CreLuc hNPY2R 100% hP of the following binder strictly smaller than 40 nM? Y[Aib]EGTFTSDYSI[Aib]LEKQAQ[Aib]AFVQWLIK([εLys-Glu-Glu-Glu-Glu-Glu-C18 diacid])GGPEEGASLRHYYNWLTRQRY-NH2 [Compound 155]
[A] not met

[Q] hey, is EC50 CreLuc hNPY2R 100% hP for Y[Aib]EGTFTSDYSI[Aib]LEEQAQ[Aib]AFVEWLIK([εLys-γGlu-γGlu-γGlu-γGlu-C20 diacid])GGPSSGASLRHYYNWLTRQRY-NH2 [Compound 97] lower than 40 nM or not?
[A] not met

[Q] Does the reported EC50 CreLuc hNPY2R 100% hP of Y[Aib]EGTFTSDYSI[Aib]LEKQAQ[Aib]AFVQWLIK([Ahx-γGlu-γGlu-γGlu-γGlu-γGlu-γGlu-C18 diacid])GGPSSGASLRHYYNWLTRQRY-NH2 [Compound 139] stay below 40 nM?
[A] not met
